Ref: patent US9957271B2

SYSTEM TESTED: SIRT1 (Homo sapiens, UniProt Q96EB6)
TEST DESCRIPTION: TAMRA based mass spectrometry assay of SIRT1 activity
Assay type: biochemical
RUN PARAMETERS: TAMRA assay; percent maximum fold activation; read-out: TAMRA % Fold Act
PARAMETER MEASURED: Emax

| COMPOUND | Emax |
| --- | --- |
| Cc1nc2c(C)cc(-c3ccccc3C(F)(F)F)nn2c1C(=O)Nc1ccnc(C2CC2)n1 [Compound 732] | ≥ 350% |
| O=C(Nc1ccc(F)cn1)c1cnn2ccc(-c3ccccc3OC(F)(F)F)nc12 [Compound 609] | < 350% |
| O=C(Nc1cccc(CN2CCC(F)(F)CC2)n1)c1cnc2ccc(-c3ccccc3C(F)(F)F)nn12 [Compound 391] | ≥ 350% |

Value lookup for Emax; key = CC(C)c1csc(C(=O)Nc2cnn3ccc(-c4ccccc4OC(F)(F)F)nc23)n1 [Compound 771]
≥ 350%

Value lookup for Emax; key = O=C(Nc1ccc(F)cn1)c1cnc2ccc(-c3ccccc3OC[C@H](O)CO)nn12 [Compound 814]
≥ 350%

Value lookup for Emax; key = Cc1nccc(NC(=O)c2cnn3ccc(-c4ccccc4C(F)(F)F)nc23)c1C [Compound 620]
< 350%

Value lookup for Emax; key = Cc1nccc(C(=O)Nc2cnc3ccc(-c4ccccc4C(F)(F)F)nn23)n1 [Compound 389]
≥ 350%

Value lookup for Emax; key = Cc1cccnc1C(=O)Nc1cnc2ccc(-c3ccccc3C(F)(F)F)nn12 [Compound 232]
≥ 350%

====

SYSTEM TESTED: SIRT1 (Homo sapiens)
TEST DESCRIPTION: TAMRA based mass spectrometry assay of SIRT1 activity
Format: biochemical
RUN PARAMETERS: TAMRA assay; concentration giving 150% activation of SIRT1
PARAMETER MEASURED: TAMRA EC1.5 (μM)

Reference set (6 entries):
| SMILES REPR | TAMRA EC1.5 (μM) |
| --- | --- |
| N#Cc1ccccc1-c1ccc2ncc(NC(=O)c3nccs3)n2n1 | B (EC1.5 1-25 μM) |
| O=C(Nc1cnc2ccc(-c3ccccc3Cl)nn12)c1cccc(N2CCOCC2)n1 | A (EC1.5<1 μM) |
| O=C(Nc1cnn2ccc(-c3ccccc3OC(F)(F)F)nc12)c1nc(C(F)(F)F)cs1 | B (EC1.5 1-25 μM) |
| Cc1cccc(NC(=O)c2cnn3ccc(-c4ccccc4OC(F)(F)F)nc23)n1 | A (EC1.5<1 μM) |
| Cc1nc2ccc(-c3ccccc3C(F)(F)F)nn2c1C(=O)Nc1ccnn1C(C)C | B (EC1.5 1-25 μM) |
| Cc1ccncc1NC(=O)c1c(C)nn2ccc(-c3ccccc3C(F)(F)F)nc12 | A (EC1.5<1 μM) |

# ---- query molecule ----
Value lookup for TAMRA EC1.5 (μM); key = Cc1nc(C(=O)Nc2cnc3ccc(-c4ccccc4C#N)nn23)c(C)s1
A (EC1.5<1 μM)

====

SYSTEM TESTED: SIRT1 (Homo sapiens, UniProt Q96EB6)
Sequence (Q96EB6 1-747): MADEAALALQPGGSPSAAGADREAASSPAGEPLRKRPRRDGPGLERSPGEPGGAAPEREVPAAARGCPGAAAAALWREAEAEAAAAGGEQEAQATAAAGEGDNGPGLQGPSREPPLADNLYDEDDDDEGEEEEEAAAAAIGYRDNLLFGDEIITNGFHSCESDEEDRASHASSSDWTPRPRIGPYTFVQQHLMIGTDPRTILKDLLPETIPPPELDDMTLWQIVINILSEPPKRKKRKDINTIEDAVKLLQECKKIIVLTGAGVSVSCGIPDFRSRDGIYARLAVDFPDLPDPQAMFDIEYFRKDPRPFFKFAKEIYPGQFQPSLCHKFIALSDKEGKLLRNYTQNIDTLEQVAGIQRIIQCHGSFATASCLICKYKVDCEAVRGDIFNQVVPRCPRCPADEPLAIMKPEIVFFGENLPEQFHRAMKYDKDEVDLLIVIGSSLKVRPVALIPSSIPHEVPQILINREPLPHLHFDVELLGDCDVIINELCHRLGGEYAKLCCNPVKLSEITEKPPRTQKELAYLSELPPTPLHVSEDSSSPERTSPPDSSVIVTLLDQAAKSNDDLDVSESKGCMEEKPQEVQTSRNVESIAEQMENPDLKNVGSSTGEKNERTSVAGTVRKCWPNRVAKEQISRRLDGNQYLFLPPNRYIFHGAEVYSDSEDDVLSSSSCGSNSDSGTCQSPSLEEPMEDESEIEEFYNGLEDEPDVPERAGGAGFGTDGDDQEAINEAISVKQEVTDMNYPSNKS
TEST DESCRIPTION: TAMRA based mass spectrometry assay of SIRT1 activity
Assay type: biochemical
RUN PARAMETERS: percent maximum fold activation of SIRT1; TAMRA peptide substrate; read-out: TAMRA % Fold Act
Below, each entry is listed with its recorded Emax.

| COMPOUND | Emax |
| --- | --- |
| COc1cc(NC(=O)c2cnc3ccc(-c4ccccc4C(F)(F)F)nn23)nc(OC)n1 [Compound 196] | ≥ 350% |
| O=C(Nc1ccc(CN2CCCC2)nc1)c1cnc2ccc(-c3ccccc3C(F)(F)F)nn12 [Compound 149] | < 350% |

# ---- query compound ----
Value lookup for Emax; key = O=C(Nc1cccc(N2CCOCC2)n1)c1cnc2ccc(-c3ccccc3C(F)(F)F)nn12 [Compound 21]
≥ 350%
